System: MS2 coat protein
PROTOCOL_DESCRIPTION: apparent KD of MS2 coat protein, switch OFF state (with FMN for OFF switches, without FMN for ON switches); designed switch direction (-1 OFF switch, 1 ON switch): -1; higher = weaker reporter binding
CONDITION_CONTEXT: FMN input: 0 or 200 uM; Eterna round: R93 (includes R88 designs)
So basically: apparent KD of MS2 coat protein at 30 nM or higher? That is yes (1). Lower than 30 nM? That is no (0).

{"columns": ["SEQ", "GROUP"],
 "data": [
  ["UAAAACAGAGGAUAUACAUGAGGAUCACCCAUGUAAAAAUGUAGAAGGCUGAAAUAAAUAAGAAGGAAAUAAAA [Meechl Ex3 R2 m1]", "no (0)"],
  ["GGUUGGCGAGGAUAUACAUGAGGAUCACCCAUGUGAGAGAAAAAAGUGAGGAGGAGGAGUAGAAGGCGCUGACG [salish99-ex3-18]", "yes (1)"],
  ["AAAUUGUCAGGAUAUCUUAGAACUGUCAAAGACAGGAGCUAAGAGAAGGGACAUGAGGAUCACCCAUGUAAAAC [May 90]", "yes (1)"],
  ["AAAAAAGGAGGAUAUACGUACAUGUCGAAAGACGUGAAGGGACAUGAGGAUCACCCAUGUAGAAGGCCUAAAAA [Mat - Exclusion 2 - JL mod - D86]", "yes (1)"],
  ["AAGAAAGGAGGAUAUACAAAAUAAAAGAAAAGAAAGAAAGAACAUGAGGAUCACCCAUGUAGAAGGCCUAAGAA [Merhotepre Sobekhotep V]", "no (0)"],
  ["GGUUGUGAAGGAUAUACAUGAGGAUCACCCAUGUGAGAGAAAAAAGUGAGAAAGAAAAGUAGAAGGUCAUGACG [salish99-ex3-64]", "yes (1)"],
  ["AAAAAUGGAGGAUAUACAUGAGGAUCACCCAUGUGUAACUAUACUAAGCACAAACCACGUAGAAGGCCAAAAAA [Gilly Gone Silly 11 - Jieux - Exclusion 3]", "yes (1)"],
  ["AGUCCAGAAGGAUAUACAUAGGUGAUAAAAAAAAAAAAACUACAUGAGGAUCACCCAUGUAGAAGGUCUGGACA [Brourd - Exclusion 2 - Sub 3]", "no (0)"]
]}

Query block: // inclusive: apparent KD of MS2 coat protein at least 30 nM? input: AGCUAGCAAGGAUAUACGAACAUGUCAAAAGACGUGAAGGGACAUGAGGAUCACCCAUGUAGAAGGUGCUAGCA [JL 74% mod 8]
Result block: yes (1)

Query block: Given AGCUAGUGAGGAUAUACGAACAUGUCAACGGACUGUAAGGGACAUGAGGAUCACCCAUGUAGAAGGCACUAGCA [Diamond 57] , state whether its apparent KD of MS2 coat protein is at least 30 nM.
Result block: yes (1)

Query block: Is the recorded value of apparent KD of MS2 coat protein equal to or greater than 30 nM for this sequence? AAAAAGUCAGGAUAUACGAAAGUGCGAAAGCACAAAAAGAGACAUGAGGAUCACCCAUGUAGAAGGGACAAGAA [Married to this design, 61% 2]
Result block: no (0)

Query block: Textbook exercise: given the entry CUCUUGUAAGGAUAUAAAUGAAAAGAAGUGAAAGAAAAGAAUUAGAAGGUACAUGAGGAUCACCCAUGUUAGAA [EteRNA is fun!] , state whether its apparent KD of MS2 coat protein is greater than or equal to 30 nM.
Result block: no (0)

Query block: Decide: apparent KD of MS2 coat protein of CUCUUGUGAGGAUAUGUAAGAAAAGAAAAGAAAGAAAAGAAACAGAAGGCACAUGAGGAUCACCCAUGUAAGAA [EteRNA is fun!] >= 30 nM?
Result block: yes (1)

Query block: Hello, I need to know if AAGAAUGCAGGAUAUACAUGAAAGAAAGAAAAGAAAAGAAAACAUGAGGAUCACCCAUGUAGAAGGGCAUAGAA [EteRNA is fun!] has measured apparent KD of MS2 coat protein not below 30 nM. Thanks!
Result block: yes (1)

Query block: apparent KD of MS2 coat protein >= 30 nM for AAGUUACAUGAGGAUCACCCAUGUGAGGAUAUGUGUAUCCCUAAAAAAGUGUGGGACCACAGAAGGUACUUGGA [Mod 2 of Atanri by ViennaUCT, Round 1] ?
Result block: yes (1)

Query block: hey, is apparent KD of MS2 coat protein for this one >= 30 nM? AGUCAGAGAGGAUAUACAUGAAAAAAAAAAGUUAGAUCCCUACAUGAGGAUCACCCAUGUAGAAGGCUCUGACA [Ex2 Design 151: Sub-opt 15]
Result block: no (0)

----------
Tested on: MS2 coat protein
PROTOCOL_DESCRIPTION: apparent KD of MS2 coat protein; designed switch direction (-1 OFF switch, 1 ON switch): -1; higher = weaker reporter binding
CONDITION_CONTEXT: input ligand: none
Returns yes if the recorded apparent KD of MS2 coat protein is greater than or equal to 100 nM, and no otherwise.

Worked cases, answers included:
{"columns": ["SEQ", "TARGET", "GROUP"],
 "data": [
  ["GUACUAGAAUAUCAGUCGCACAUGAGGAUCACCCAUGUCAUGGGUAGAUCAAUAAAUAAAGAUACUGCUCGUCUUAU [Cac sensor turnoff var1 sub2] (Eterna round: R97, puzzle: Sensor, turn-off variant 1)", "MS2 coat protein", "yes"],
  ["AGCCACAGAGGAUAUACAUACAUCCAGUAGUAGAGAAUACUACAUGAGGAUCACCCAUGUAGAAGGCUGUGGCA [Omei Ex2 BD B14] (Eterna round: R97, puzzle: Exclusion 2)", "MS2 coat protein", "yes"],
  ["CCCAGUUAGAGAGGAUAUCGUACAUGAGGAUCACCCAUGUAAUAAAUGAGGAUUUCGGGUGUCUACGAGAAGGCUCGGAUAGGC [Ostracism 30 - Jieux - Exclusion NG 2] (Eterna round: R96, puzzle: Exclusion NG 2)", "MS2 coat protein", "no"]
]}

Query block: Record CAGUACUGAGGAUAUACAUGAGGAUCACCCAUGUGUUCCUGCUAGGAAACUAGCAAAAGUAGAAGGCAGUACUG [salish99_ex3_r3_098x] (Eterna round: R96, puzzle: Exclusion 3) ; criterion: apparent KD of MS2 coat protein no lower than 100 nM. Met?
Result block: no

Query block: Please tell me: is the sequence CGGGCCCGGGCAGGAUAUGCGGCGGCCCGGGCCGGUGGGCCCGGGCCGACAUGAGGAUCACCCAUGUAGAAGGGCCCGGGCCCG [low energy, MS2 in another position, A 14%] (Eterna round: R96, puzzle: Exclusion NG 2) at or over 100 nM in terms of apparent KD of MS2 coat protein?
Result block: no

Query block: API: above_or_equal(metric=apparent KD of MS2 coat protein, cutoff=100 nM) for item GGCAUGCAAGGAUAUACUUGAAGUGAUGUUCGAUAAAGUCUACUUGAGGAUCACCCAAGUAGAAGGUGCAUGCC [Exclusion 2 (Mod5.1 JL EX2 4.74 Vienna UCT mod of Mamaed)] (Eterna round: R97, puzzle: Exclusion 2)
Result block: yes

Query block: Entry AUACCAUGCCGCCUAAUAGCUUUUUGCUCGUCUUAUAAAACAUGAGGAUCACCCAUGUAAAACAUGUGGCGUGACCC [Maridi] (Eterna round: R96, puzzle: Sensor v3, turn-off variant 2) : is its apparent KD of MS2 coat protein no less than 100 nM?
Result block: yes

Query block: Quick check, apparent KD of MS2 coat protein >= 100 nM? ACACUGCGAGGAUAUACAUGAGGAUCACCCAUGUAUCGGUAGUCAAGGUUAAUUUAAGGUAGAAGGCGCGUAUU [JR_Ex3_Sub007] (Eterna round: R97, puzzle: Exclusion 3)
Result block: no

Query block: Is apparent KD of MS2 coat protein for UUAUUAUAUGUAGGAUAUGCGUAUUAUUGUUAUGCAGAAGGACAUGAGGAUCACCCAUGUAUAUUAUUGUUAUAUAUUAUAUAU [Title] (Eterna round: R96, puzzle: Exclusion NG 1) at or above 100 nM?
Result block: no

----------
Tested on: MS2 coat protein
PROTOCOL_DESCRIPTION: apparent KD of MS2 coat protein, switch ON state; designed switch direction (-1 OFF switch, 1 ON switch): -1; higher = weaker reporter binding
CONDITION_CONTEXT: FMN input: 0 or 200 uM; Eterna round: R93 (includes R88 designs)
Lab note: compare apparent KD of MS2 coat protein against 30 nM. Equal or greater, write YES. Smaller, write NO.

Here's what some known entries look like.
{"columns": ["SEQ", "GROUP"],
 "data": [
  ["AAAAAACAUGAGGAUCACCCAUGUGAGGAUAUGCAAAAAAAAAAAAAAAAAAAAAAAAGCAGAAGGCGCAAAAA [4 GC Strong]", "NO"],
  ["AGCUAGUCAGGAUAUACGAACAUGUCAAAAGACGUGAAUAAACAUGAGGAUCACCCAUGUAGAAGGGACUAGCA [Mat - Exclusion 2 - JL-Eli mod - D53]", "NO"],
  ["AAAAAAAGAGGAUAUACGAACAUGUCAAAAGACGUGAAGGGACAUGAGGAUCACCCAUGUAGAAGGCUUAAAAA [JL Part Open 28]", "YES"],
  ["AAAUCAGUAGGAUAUACGAUUUGGUACUAGACCGAGGAACCACAUGAGGAUCACCCAUGUAGAAGGACUAGAUA [EX2 Malc#21]", "NO"],
  ["AGCUAGUCAGGAUAUACGAACAUGUCAGAAGACGUGAAGGGACAUGAGGAUCACCCAUGUAGAAGGGACUAGCG [74%, Web mod - With 2 more G's]", "YES"]
]}

Query block: Would you say AGAAAGUCAGGAUAUACGAACAAGAAAAAAGACGAGAACGGACAUGAGGAUCACCCAUGUAGAAGGGACAAGAA [Diamond 13] shows apparent KD of MS2 coat protein at minimum 30 nM?
Result block: YES

Query block: Identify whether the reported apparent KD of MS2 coat protein of the following sequence is 30 nM or greater: AAAUUGUCAGGAUAUCUUAGAACUGUCAAAGACAGGAGCUAAGAGAAGGGACAUGAGGAUCACCCAUGUAAAAC [May 90]
Result block: YES

Query block: # check: apparent KD of MS2 coat protein of AGCUAGCAAGGAUAUACGAACAUGUCAAAAGACGUGAAGGGACAUGAGGAUCACCCAUGUAGAAGGUGCUAGCA [JL 74% mod 8] is greater than or equal to 30 nM
Result block: YES

Query block: Evaluate AAAAUAAAAGGAUAUAAAAAUAAAAGUCAGGAUAUAGGAAACUAGAAGGGACAUGAGGAUCACCCAUGUAAAAU [Meechl Ex4 R2 m1] : apparent KD of MS2 coat protein at minimum 30 nM?
Result block: YES

Query block: Decide: is the reported value of apparent KD of MS2 coat protein for ACAAACCAAGGAUAUACAUGAGGAUCACCCAUGUGUUCGGCGUUUAGCAUGGGCAGCAGUAGAAGGUGGAGAAA [Dilareat] equal to or greater than 30 nM?
Result block: YES

Query block: Is apparent KD of MS2 coat protein at least 30 nM? Consider AAAAAGUCAGGAUAUACGAAAGUGCGAAAGCACAAAAAGAGACAUGAGGAUCACCCAUGUAGAAGGGACAAGAA [Married to this design, 61% 2]
Result block: YES

Query block: // inclusive: apparent KD of MS2 coat protein at least 30 nM? input: CAGUACUGAGGAUAUACAUGAGGAUCACCCAUGUAAAAAACCUACGAAAGUAGGAAAUGUAGAAGGCAGUACUG [Ex3: 803]
Result block: NO
